Assay: Pharmacokinetic analysis (intravenous and oral), Method B9
Format: in vivo
Settings: plasma; Table 10b; 2 mg/mL intravenous typically employed

molecule	clearance
CC(O)[C@H]1C(=O)N[C@H](Cc2ccccc2)C(=O)NCC#Cc2ccc(F)cc2OCCN[C@@H](C2(C)CC2)C(=O)N1C (stereo partly shown) [Compound 1918]	14 mL/min/kg
CC(O)[C@H]1C(=O)N[C@H](Cc2ccccc2)C(=O)NCC#Cc2ccccc2OCCN[C@@H](C2(C)CC2)C(=O)N1C (stereo partly shown) [Compound 1878]	35 mL/min/kg
CC(O)[C@H]1C(=O)N[C@H](Cc2ccccc2)C(=O)NCCCc2cccc3c2OC(CC3)CN[C@@H](C2CC2)C(=O)N1C (stereo partly shown) [Compound 1778]	26 mL/min/kg
CC(O)[C@H]1C(=O)N[C@H](Cc2ccccc2)C(=O)NCC#Cc2c(F)cccc2OCCN[C@@H](C2(C)CC2)C(=O)N1C (stereo partly shown) [Compound 1876]	28 mL/min/kg

====

This listing pairs compounds with measured pKi.
Target: human ghrelin receptor (GRLN, growth hormone secretagogue receptor, hGHS-R1a) (Homo sapiens)
Construct: purchased PerkinElmer BioSignal #RBHGHSM, lot#1887; host or cells: HEK-293 cells, stably transfected (membranes)
Sequence (Q92847 whole entry): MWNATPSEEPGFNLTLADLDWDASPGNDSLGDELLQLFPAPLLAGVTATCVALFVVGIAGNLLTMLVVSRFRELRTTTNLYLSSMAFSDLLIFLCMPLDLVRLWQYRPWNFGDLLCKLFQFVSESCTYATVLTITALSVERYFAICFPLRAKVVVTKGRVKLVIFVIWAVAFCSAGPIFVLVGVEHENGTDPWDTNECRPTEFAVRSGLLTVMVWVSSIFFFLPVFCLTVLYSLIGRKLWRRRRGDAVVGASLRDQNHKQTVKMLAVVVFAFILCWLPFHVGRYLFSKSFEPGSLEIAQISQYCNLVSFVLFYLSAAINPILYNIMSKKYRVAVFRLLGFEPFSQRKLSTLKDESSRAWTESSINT
Assay: Competitive radioligand binding assay (ghrelin receptor), Method B1
Conditions: Ghrelin receptor binding activity, Method B1
pKi: −log10 of the molar value.
measurement.kind: pKi

compound	measurement.kind	data.value
CCC(C)[C@@H]1NC[C@@H](C)Oc2ccccc2CCCNC(=O)[C@@H](Cc2ccccc2)NC(=O)[C@H](C(C)O)N(C)C1=O (stereo partly drawn)	pKi	6.30 to 7.00
CCC(C)C1NCCOc2ccccc2CC(C)CNC(=O)C(Cc2ccccc2)NC(=O)C(C(C)O)N(C)C1=O (mixture of isomers)	pKi	7.00 to 8.00
COC(C)[C@@H]1NCCOc2ccccc2/C=C/CNC(=O)[C@@H](Cc2ccccc2)NC(=O)[C@H](C(C)O)N(C)C1=O (stereo partly drawn)	pKi	7.00 to 8.00
CCC(C)[C@@H]1NCCOc2ccccc2/C=C/[C@H](C)NC(=O)[C@@H](Cc2ccccc2)NC(=O)[C@H](C(C)O)N(C)C1=O (stereo partly drawn)	pKi	7.00 to 8.00
CC(O)[C@H]1C(=O)N[C@H](Cc2ccccc2)C(=O)NC/C=C/c2ccccc2OCCN[C@@H](C2CCCCC2)C(=O)N1C (stereo partly drawn)	pKi	7.00 to 8.00
CCC(C)[C@@H]1NC[C@H](C)Oc2ccccc2/C=C/CNC(=O)[C@@H](Cc2ccccc2)NC(=O)[C@H](C(C)O)N(C)C1=O (stereo partly drawn)	pKi	6.30 to 7.00

====

Molecular target: CYP3A4 (Homo sapiens)
Sequence (P08684 whole entry): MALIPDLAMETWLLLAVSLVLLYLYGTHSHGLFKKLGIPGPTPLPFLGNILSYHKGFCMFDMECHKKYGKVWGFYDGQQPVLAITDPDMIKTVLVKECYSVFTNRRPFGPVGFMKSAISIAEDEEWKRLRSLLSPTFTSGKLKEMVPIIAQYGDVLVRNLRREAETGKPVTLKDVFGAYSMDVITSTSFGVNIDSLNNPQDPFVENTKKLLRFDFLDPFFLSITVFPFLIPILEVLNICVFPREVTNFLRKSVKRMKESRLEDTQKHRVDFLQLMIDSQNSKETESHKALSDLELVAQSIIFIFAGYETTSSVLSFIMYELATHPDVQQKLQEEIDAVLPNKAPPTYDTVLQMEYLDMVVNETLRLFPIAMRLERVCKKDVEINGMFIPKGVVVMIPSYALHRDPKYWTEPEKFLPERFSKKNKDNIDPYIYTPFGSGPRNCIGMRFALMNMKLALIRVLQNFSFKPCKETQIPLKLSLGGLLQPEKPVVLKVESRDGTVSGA
Assay: biochemical
pIC50: −log10 of the molar value.
Returns label 1 if the recorded pIC50 is greater than or equal to 5, and label 0 otherwise.

molecule	classification
CCC(C)[C@@H]1NCCOc2ccccc2/C=C/CNC(=O)[C@@H](Cc2ccc(C(F)(F)F)cc2)NC(=O)[C@H](C(C)O)N(C)C1=O (stereo partly shown)	label 0
CC(C)[C@@H]1NCCOc2ccccc2C#CCNC(=O)[C@@H](Cc2ccccc2)NC(=O)[C@H](C(C)O)N(C)C1=O (stereo partly shown)	label 1
CC(C)[C@@H]1NCCOc2ccccc2CC[C@@H](C)NC(=O)[C@@H]([C@@H](C)c2ccccc2)NC(=O)[C@H](C(C)O)N(C)C1=O (stereo partly shown)	label 1
CCC(C)[C@@H]1NCCOc2ccccc2C[C@H](O)CNC(=O)[C@@H](Cc2ccccc2)NC(=O)[C@H](C(C)O)N(C)C1=O (stereo partly shown)	label 0
CC[C@@H]1NCC2CCc3cccc(c3O2)CCCNC(=O)[C@@H](Cc2ccccc2)NC(=O)[C@H](C(C)O)N(C)C1=O (stereo partly shown)	label 1
CCC(C)[C@@H]1NCCOc2ccccc2/C=C/CNC(=O)[C@@H](Cc2cccc(F)c2)NC(=O)[C@H](C(C)O)N(C)C1=O (stereo partly shown)	label 1
CC(C)[C@@H]1NCCOc2ccccc2C[C@H](O)[C@@H](C)NC(=O)[C@@H](Cc2cccc(F)c2)NC(=O)[C@H](C(C)O)N(C)C1=O (stereo partly shown)	label 0
CC(O)[C@H]1C(=O)N[C@H](Cc2ccccc2)C(=O)NCC#Cc2ccc(F)cc2OCCN[C@@H](C2(C)CC2)C(=O)N1C (stereo partly shown)	label 0
CC[C@@H]1CCc2ccc(F)cc2OCCN[C@@H](C(C)C)C(=O)N(C)[C@@H](C(C)O)C(=O)N[C@H](Cc2c[nH]c3ccccc23)C(=O)N1 (stereo partly shown)	label 1
